Data provenance is ChEMBL document CHEMBL4602605.

Listing: MIC of selected molecules
test system: Mycolicibacterium smegmatis; assay: Antimicrobial activity against Mycobacterium smegmatis ATCC 607 incubated for 48 to 72 hrs by microbroth dilution method; assay type: functional
measuredProperty: MIC

> print(dat)
                          chemicalstructure                   testtarget  measuredproperty             obsvalue
1  O=C(O)c1cn(C2CC2)c2cc(N3CCN(Cn4nc(CN5CCN(c6ccc([N+](=O)[O-])cc6)CC5)oc4=S)CC3)c(F)cc2c1=O  Mycolicibacterium smegmatis               MIC           0.03 µg/mL
2  CCn1cc(C(=O)O)c(=O)c2cc(F)c(N3CCN(Cn4nc(CN5CCN(c6ccc([N+](=O)[O-])cc6)CC5)n(Cc5ccccc5)c4=O)CC3)cc21  Mycolicibacterium smegmatis               MIC  0.244 to 0.99 µg/mL
3  CCn1cc(C(=O)O)c(=O)c2cc(F)c(N3CCN(Cn4nc(CN5CCN(c6ccc([N+](=O)[O-])cc6)CC5)n(-c5ccccc5)c4=O)CC3)cc21  Mycolicibacterium smegmatis               MIC  0.244 to 0.25 µg/mL
4  CCn1cc(C(=O)O)c(=O)c2cc(F)c(N3CCN(Cn4nc(CN5CCN(c6ccc([N+](=O)[O-])cc6)CC5)n(-c5ccc(F)cc5)c4=O)CC3)cc21  Mycolicibacterium smegmatis               MIC          0.244 µg/mL
5  CCn1cc(C(=O)O)c(=O)c2cc(F)c(N3CCN(Cn4nc(CN5CCN(c6ccc([N+](=O)[O-])cc6)CC5)n(-c5ccccc5)c4=S)CC3)cc21  Mycolicibacterium smegmatis               MIC  0.244 to 0.25 µg/mL
6  CCn1cc(C(=O)O)c(=O)c2cc(F)c(N3CCN(Cn4nc(CN5CCN(c6ccc([N+](=O)[O-])cc6)CC5)n(Cc5ccccc5)c4=S)CC3)cc21  Mycolicibacterium smegmatis               MIC          0.244 µg/mL

---

tested on: Escherichia coli; assay: Antimicrobial activity against multidrug resistance Escherichia coli ATCC 35218 by microdilution method; assay type: functional
measuredProperty: MIC

> print(dat)
                                   compound      obsvalue
1  O=C(O)c1cn(C2CC2)c2c(cc(F)c3nn(CN(N4CCCCC4)N4CCCCC4)c(=O)n32)c1=O     ≤ 4 µg/mL
2  CCN1CCN(N(Cn2nc3c(F)cc4c(=O)c(C(=O)O)cn(C5CC5)c4n3c2=O)N2CCN(CC)CC2)CC1  ≤ 0.25 µg/mL
3  CCN(CC)N(Cn1nc2c(F)cc3c(=O)c(C(=O)O)cn(C4CC4)c3n2c1=O)N(CC)CC    ≤ 32 µg/mL
4  CCn1cc(C(=O)O)c(=O)c2cc(F)c(-n3cc(CO[C@H]4O[C@@H](C)[C@H](OC(C)=O)[C@@H](OC(C)=O)[C@H]4OC(C)=O)nn3)c(F)c21    ≤ 16 µg/mL
5  CN(C)N(Cn1nc2c(F)cc3c(=O)c(C(=O)O)cn(C4CC4)c3n2c1=O)N(C)C     ≤ 4 µg/mL
6  CN1CCN(N(Cn2nc3c(F)cc4c(=O)c(C(=O)O)cn(C5CC5)c4n3c2=O)N2CCN(C)CC2)CC1     ≤ 2 µg/mL
7  CC1CNCCN1N(Cn1nc2c(F)cc3c(=O)c(C(=O)O)cn(C4CC4)c3n2c1=O)N1CCNCC1C (stereo not drawn)     ≤ 2 µg/mL
8  O=C(O)c1cn(C2CC2)c2c(cc(F)c3nn(CN(N4CCOCC4)N4CCOCC4)c(=O)n32)c1=O     ≤ 2 µg/mL

---

system: Bacillus cereus; experiment: Antimicrobial activity against Bacillus cereus 709 Roma incubated for 18 to 24 hrs by microbroth dilution method; format: functional
measuredProperty: MIC

> print(dat)
                          chemicalstructure       testtarget  measuredproperty            obsvalue
1  CCn1cc(C(=O)O)c(=O)c2cc(F)c(N3CCN(Cn4nc(CN5CCN(c6ccc([N+](=O)[O-])cc6)CC5)n(Cc5ccccc5)c4=S)CC3)cc21  Bacillus cereus               MIC  0.12 to 0.48 µg/mL
2  CCn1cc(C(=O)O)c(=O)c2cc(F)c(N3CCN(Cn4nc(CN5CCN(c6ccc([N+](=O)[O-])cc6)CC5)oc4=S)CC3)cc21  Bacillus cereus               MIC        < 0.25 µg/mL
3  CCn1cc(C(=O)O)c(=O)c2cc(F)c(N3CCN(Cn4nc(CN5CCN(c6ccc([N+](=O)[O-])cc6)CC5)n(-c5ccc(F)cc5)c4=O)CC3)cc21  Bacillus cereus               MIC          0.12 µg/mL

---

test system: Escherichia coli; assay: Antibacterial activity against Escherichia coli incubated for 18 hrs by CLSI-based broth microdilution method; type: functional
Listing: MIC of selected compounds
measuredProperty: MIC (µg/mL)

> print(dat)
                           chemicalstructure  qualifier  obsvalue
 1  CCn1cc(C(=O)O)c(=O)c2cc(F)c(N3CCCCCC3)cc21          =        16
 2  Cl.NCCNc1cc2c(cc1F)c(=O)c(C(=O)O)cn2C1CC1          =         1
 3  Cl.O=C(O)c1cn(Cc2ccccc2)c2cc(N3CCNCC3)c(F)cc2c1=O          =         1
 4  COc1ccc(Cn2cc(C(=O)O)c(=O)c3cc(F)c(N4CCNCC4)cc32)cc1.Cl          =       128
 5  CCCCN(CCCC)c1cc2c(cc1F)c(=O)c(C(=O)O)cn2C1CC1          >       128
 6  Cl.O=C(O)c1cn(CCO)c2cc(N3CCNCC3)c(F)cc2c1=O          =         4
 7  CCN(CC)c1cc2c(cc1F)c(=O)c(C(=O)O)cn2C1CC1          =         1
 8  O=C(O)c1cn(C2CC2)c2cc(N3CCCCCC3)c(F)cc2c1=O          =         2
 9    CCn1cc(C(=O)O)c(=O)c2cc(F)c(N(C)C)cc21          =         2
10  CN1CCN(c2cc3c(cc2F)c(=O)c(C(=O)O)cn3C2CC2)CC1          =    0.0078
11  CC(C)n1cc(C(=O)O)c(=O)c2cc(F)c(N3CCNCC3)cc21.Cl          =       0.5
12  Cl.Cn1cc(C(=O)O)c(=O)c2cc(F)c(N3CCNCC3)cc21          =      0.25
13  CCCCN(CCCC)c1cc2c(cc1F)c(=O)c(C(=O)O)cn2CC          >       128
14    CCN(CC)c1cc2c(cc1F)c(=O)c(C(=O)O)cn2CC          =         8
15  CCCCCCn1cc(C(=O)O)c(=O)c2cc(F)c(N3CCNCC3)cc21.Cl          =        64
16  CCCCn1cc(C(=O)O)c(=O)c2cc(F)c(N3CCNCC3)cc21.Cl          =         2

---

system: Staphylococcus aureus; test: Antibacterial activity against Staphylococcus aureus NCDC 110 by single disk method; type: functional
measuredProperty: log10 MIC (log10 of the value in µg/mL)

> print(dat)
                                    molecule  obsvalue
 1  COc1c(N2CCN(CC(=O)Nc3nc4c(Cl)cccc4s3)C(C)C2)c(F)cc2c(=O)c(C(=O)O)cn(C3CC3)c12 (stereo unspecified)      0.60
 2  COc1c(N2CCN(CC(=O)Nc3nc4c(F)cccc4s3)C(C)C2)c(F)cc2c(=O)c(C(=O)O)cn(C3CC3)c12 (stereo unspecified)      1.18
 3  O=C(CN1CCN(c2cc3c(cc2F)c(=O)c(C(=O)O)cn3C2CC2)CC1)Nc1nc2c(Cl)ccc(Cl)c2s1      0.70
 4  COc1c(N2CCN(CC(=O)Nc3nc4c([N+](=O)[O-])cccc4s3)C(C)C2)c(F)cc2c(=O)c(C(=O)O)cn(C3CC3)c12 (stereo unspecified)      1.78
 5  CCn1cc(C(=O)O)c(=O)c2cc(F)c(N3CCN(CC(=O)Nc4nc5ccc(Cl)cc5s4)CC3)cc21      1.18
 6  O=C(CN1CCN(c2cc3c(cc2F)c(=O)c(C(=O)O)cn3C2CC2)CC1)Nc1nc2ccc(F)cc2s1      1.54
 7  Cc1ccc2nc(NC(=O)CN3CCN(c4cc5c(cc4F)c(=O)c(C(=O)O)cn5C4CC4)CC3)sc2c1      1.60
 8  CCn1cc(C(=O)O)c(=O)c2cc(F)c(N3CCN(CC(=O)Nc4nc5ccc(F)cc5s4)CC3)cc21      1.65
 9  O=C(CN1CCN(c2cc3c(cc2F)c(=O)c(C(=O)O)cn3C2CC2)CC1)Nc1nc2ccc([N+](=O)[O-])cc2s1      1.70
10  O=C(CN1CCN(c2cc3c(cc2F)c(=O)c(C(=O)O)cn3C2CC2)CC1)Nc1nc2ccc(Cl)cc2s1      0.48
11  COc1c(N2CCN(CC(=O)Nc3nc4c(C)cccc4s3)C(C)C2)c(F)cc2c(=O)c(C(=O)O)cn(C3CC3)c12 (stereo unspecified)      1.85
